- test_details: inhibitors of mitochondrial cytochrome c release, biochemical, purified mitochondria (AID 1603);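 note: mouse liver mitochondria challenged with calcium chloride; signal normalized to the plate average as 100%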
- stated_conditions: stronger effect = lower value

{"compound": "CO[C@H]1/C=C/O[C@@]2(C)Oc3c(C)c(O)c4c(O)c(c(C=NN5CCN(C)CC5)c(O)c4c3C2=O)NC(=O)/C(C)=C\\C=C\\C(C)[C@H](O)[C@@H](C)[C@@H](O)[C@@H](C)[C@@H](OC(C)=O)[C@@H]1C (some centres undefined)", "cytochrome c release ratio": 0.69}
{"compound": "CN(C)CC/C=C1/c2ccccc2COc2ccccc21", "cytochrome c release ratio": 0.69}
{"compound": "C=C1CC[C@H](O)C/C1=C/C=C1\\CCC[C@]2(C)C([C@H](C)/C=C/[C@H](C)C(C)C)CC[C@@H]12 (some centres undefined)", "cytochrome c release ratio": 1.43}
{"compound": "CC1=C2C(=CO[C@H](C)[C@H]2C)C(=O)C(C(=O)O)=C1O", "cytochrome c release ratio": 0.99}
